# test_system: E. coli Topoisomerase IV (Escherichia coli, UniProt P0AFI2+P20083)
# Construct: purchased Inspiralis, UK
# Sequence (P20083 whole entry): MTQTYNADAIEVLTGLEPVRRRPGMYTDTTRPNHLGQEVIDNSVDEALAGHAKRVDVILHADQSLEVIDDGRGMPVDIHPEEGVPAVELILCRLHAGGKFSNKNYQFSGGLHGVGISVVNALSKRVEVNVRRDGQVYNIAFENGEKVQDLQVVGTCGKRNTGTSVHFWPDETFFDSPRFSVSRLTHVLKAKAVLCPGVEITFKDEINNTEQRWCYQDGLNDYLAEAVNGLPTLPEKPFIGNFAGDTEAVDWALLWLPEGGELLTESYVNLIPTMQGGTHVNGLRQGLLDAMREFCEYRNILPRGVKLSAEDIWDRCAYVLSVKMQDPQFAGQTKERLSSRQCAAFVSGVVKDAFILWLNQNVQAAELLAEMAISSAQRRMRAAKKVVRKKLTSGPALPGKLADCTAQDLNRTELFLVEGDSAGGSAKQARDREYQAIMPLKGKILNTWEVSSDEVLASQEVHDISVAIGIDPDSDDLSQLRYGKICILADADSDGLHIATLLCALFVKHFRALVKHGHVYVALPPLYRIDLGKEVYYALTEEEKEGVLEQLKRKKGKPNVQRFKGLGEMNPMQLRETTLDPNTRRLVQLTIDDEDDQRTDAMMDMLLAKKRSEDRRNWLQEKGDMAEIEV
# Sequence (P0AFI2 whole entry): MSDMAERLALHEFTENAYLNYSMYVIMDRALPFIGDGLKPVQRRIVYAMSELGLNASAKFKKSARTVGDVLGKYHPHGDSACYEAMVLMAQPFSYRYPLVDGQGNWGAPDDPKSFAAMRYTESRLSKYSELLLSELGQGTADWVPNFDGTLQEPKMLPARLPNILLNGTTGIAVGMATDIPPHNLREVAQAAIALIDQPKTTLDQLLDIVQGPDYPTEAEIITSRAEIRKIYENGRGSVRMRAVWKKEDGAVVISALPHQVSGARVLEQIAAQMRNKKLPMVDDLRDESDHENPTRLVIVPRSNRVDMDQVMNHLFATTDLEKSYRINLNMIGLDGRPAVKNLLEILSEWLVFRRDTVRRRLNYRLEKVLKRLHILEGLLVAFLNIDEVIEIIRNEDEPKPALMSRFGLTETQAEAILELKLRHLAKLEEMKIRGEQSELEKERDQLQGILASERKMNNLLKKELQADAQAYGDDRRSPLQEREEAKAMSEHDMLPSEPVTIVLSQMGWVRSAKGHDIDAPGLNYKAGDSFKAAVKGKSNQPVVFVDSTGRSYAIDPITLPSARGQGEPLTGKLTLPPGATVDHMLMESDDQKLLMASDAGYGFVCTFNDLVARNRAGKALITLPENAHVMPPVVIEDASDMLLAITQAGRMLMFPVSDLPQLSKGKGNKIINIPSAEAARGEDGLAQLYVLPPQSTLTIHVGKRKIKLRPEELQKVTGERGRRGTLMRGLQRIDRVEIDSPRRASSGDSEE
# measurement_protocol: Topoisomerase IV decatenation assay (E. coli)
# Assay type: biochemical
# recorded_conditions: E. coli; conc. 100 μM; n/a = not active; read-out: % inhibition Topo IV
measurement_type: inhibition at 100 µM (%)
Please give a number only; it is taken to be in %.

As a guide, the following entries are already answered.
>>> df
                                   compound  value_reported
0  O=c1cc(NCC(O)CN2CCN(c3nccc4ccccc34)CC2)c2ccccc2o1 (racemic) [Compound 59]             100
1  O=c1cc(NCCCN2CCN(c3nccc4ccc(Cl)cc34)CC2)c2ccccc2o1 [Compound 51]              88
2  O=c1cc(N[C@H]2C[C@H](N3CCN(c4nccc5ccccc45)CC3)C2)c2ccccc2o1 [Compound 55]              95

Look up inhibition at 100 µM with E. coli Topoisomerase IV (Escherichia coli, UniProt P0AFI2+P20083) for this compound: O=c1cc(NCCCN2CCN(c3nccc4ccc(F)cc34)CC2)c2ccccc2o1 [Compound 67]
100

Record O=c1cc(NCCCN2CCN(c3nccc4cccnc34)CC2)c2ccccc2o1 [Compound 61] : what is its inhibition at 100 µM with E. coli Topoisomerase IV (Escherichia coli, UniProt P0AFI2+P20083)?
92

FYI, the data here is from patent US10221144B2.
